biological target: 5-HT1A cloned receptor membrane fragments (Homo sapiens); construct: expressed in transfected cells; experiment: [35S]-GTPγS binding assay; format: biochemical; settings: relative to excess 8-OH-DPAT maximum agonist response
The entries below are paired with their reported Emax.
Please make sure the unit comes right after the number.

>>> reported_value("Fc1ccc2[nH]cc([C@H]3CC[C@@H](N4CCN(c5cccc6[nH]ccc56)CC4)CC3)c2c1")
"10%"
>>> reported_value("N#Cc1ccc2[nH]cc([C@H]3CC[C@H](N4CCN(c5cccc6cccnc56)CC4)CC3)c2c1 [Example 29b]")
"70%"
>>> reported_value("c1cc(N2CCN([C@H]3CC[C@H](c4c[nH]c5ncccc54)CC3)CC2)c2cc[nH]c2c1 [Example 10b]")
"14%"
>>> reported_value("Fc1ccc2c(c1)[nH]cc2[C@H]1CC[C@H](N2CCN(c3cccc4c3OCCO4)CC2)CC1 [Example 25b]")
"46%"
>>> reported_value("N#Cc1ccc2[nH]cc([C@H]3CC[C@H](N4CCN(c5cccc6c5OCCO6)CC4)CC3)c2c1 [Example 26b]")
"39%"

Given the entry COc1ccc2[nH]cc([C@H]3CC[C@H](N4CCN(c5ccccc5OC)CC4)CC3)c2c1 [Example 20b] , report its measured Emax.
33%

Now this one: N#Cc1ccc2[nH]cc([C@H]3CC[C@@H](N4CCN(c5cccc6c5OCCO6)CC4)CC3)c2c1 [Example 26a]
18%

Now this one: N#Cc1ccc2[nH]cc([C@H]3CC[C@@H](N4CCN(c5cccc6[nH]ccc56)CC4)CC3)c2c1
0%

Now this one: COc1ccccc1C1CCN([C@H]2CC[C@H](c3c[nH]c4ccc(F)cc43)CC2)CC1 [Example 19b]
74%

----------
Target: human 5-HT1A receptor subtype (Homo sapiens, UniProt P08908)
Construct: expressed in transfected cells
Sequence (P08908 1-422): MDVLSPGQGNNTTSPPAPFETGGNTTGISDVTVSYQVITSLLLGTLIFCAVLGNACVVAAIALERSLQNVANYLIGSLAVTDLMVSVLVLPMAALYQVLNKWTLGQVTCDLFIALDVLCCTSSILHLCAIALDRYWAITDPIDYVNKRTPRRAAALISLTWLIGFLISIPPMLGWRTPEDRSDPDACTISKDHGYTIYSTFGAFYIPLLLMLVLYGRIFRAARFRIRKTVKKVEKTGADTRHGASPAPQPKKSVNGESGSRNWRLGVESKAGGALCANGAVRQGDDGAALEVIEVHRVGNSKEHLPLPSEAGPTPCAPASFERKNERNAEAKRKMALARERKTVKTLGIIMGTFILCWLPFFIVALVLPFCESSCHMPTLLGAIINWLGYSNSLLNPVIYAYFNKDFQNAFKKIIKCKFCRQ
Assay: 5-HT1A receptor binding, [3H]8-OH-DPAT, CHO cell membranes
Settings: [3H]8-OH-DPAT 1.5 nM
measured.quantity: Ki (nM)
Quick reminder: number only, in nM, skip the unit.

>>> reported_value("Fc1ccc2[nH]cc([C@H]3CC[C@@H](N4CCN(c5cccc6[nH]ccc56)CC4)CC3)c2c1")
36.7
>>> reported_value("N#Cc1ccc2[nH]cc([C@H]3CC[C@@H](N4CCN(c5cccc6c5OCCO6)CC4)CC3)c2c1 [Example 26a]")
59.1
>>> reported_value("Cn1cc([C@H]2CC[C@@H](N3CCN(c4cccc5cccnc45)CC3)CC2)c2cc(C#N)ccc21")
24.5

Given the entry COc1ccccc1N1CCN([C@H]2CC[C@@H](c3c[nH]c4ncccc43)CC2)CC1 , report its measured Ki.
110

Value source: patent US6465482B2
